Reference for the values: patent US7173019B2

- assay_target: human platelet heparanase (Homo sapiens)
- Construct: 10 ng of purified human platelet heparanase; from tissue; host or cells: human platelets
- Sequence (Q9Y251 158-543 limits assumed): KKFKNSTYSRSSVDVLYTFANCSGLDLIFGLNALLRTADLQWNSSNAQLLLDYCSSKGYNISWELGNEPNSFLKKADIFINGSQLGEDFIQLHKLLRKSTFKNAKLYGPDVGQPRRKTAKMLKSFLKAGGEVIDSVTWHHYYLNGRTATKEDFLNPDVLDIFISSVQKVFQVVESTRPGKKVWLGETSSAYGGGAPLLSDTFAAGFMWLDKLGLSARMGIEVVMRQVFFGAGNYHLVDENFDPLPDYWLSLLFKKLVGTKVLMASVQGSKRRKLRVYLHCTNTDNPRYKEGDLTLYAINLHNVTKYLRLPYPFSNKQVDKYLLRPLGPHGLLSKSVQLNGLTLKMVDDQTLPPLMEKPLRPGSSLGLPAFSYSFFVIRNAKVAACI
- Sequence (Q9Y251 36-109 limits assumed): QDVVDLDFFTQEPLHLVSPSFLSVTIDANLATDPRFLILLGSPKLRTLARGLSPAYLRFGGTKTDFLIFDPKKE
- test_method_notes: Heparanase inhibition, 3H-radiolabelled HS cleavage assay
- Format: biochemical
- particulars: based on a comparison with heparin with 100% inhibition at 30 μg/ml; read-out: Relative inhibition (%)
inhibition by entry:
Response body: numeric value in %, unit text excluded.

- molecule: "O=S(=O)(O)O[C@H]1[C@H](OS(=O)(=O)O)[C@@H](N(CCCCCCCN([C@H]2C=C[C@@H](OS(=O)(=O)O)[C@@H](OS(=O)(=O)O)[C@@H]2OS(=O)(=O)O)[C@H]2C=C[C@@H](OS(=O)(=O)O)[C@@H](OS(=O)(=O)O)[C@@H]2OS(=O)(=O)O)[C@H]2C=C[C@@H](OS(=O)(=O)O)[C@@H](OS(=O)(=O)O)[C@@H]2OS(=O)(=O)O)C=C[C@H]1OS(=O)(=O)O [Compound 4h]"
  inhibition, %: 48

// next item, inhibition requested
Data request: What does the record list as inhibition for O=S(=O)(O)OC(CN([C@H]1C=C[C@@H](OS(=O)(=O)O)[C@@H](OS(=O)(=O)O)[C@@H]1OS(=O)(=O)O)[C@H]1C=C[C@@H](OS(=O)(=O)O)[C@@H](OS(=O)(=O)O)[C@@H]1OS(=O)(=O)O)CN([C@H]1C=C[C@@H](OS(=O)(=O)O)[C@@H](OS(=O)(=O)O)[C@@H]1OS(=O)(=O)O)[C@H]1C=C[C@@H](OS(=O)(=O)O)[C@@H](OS(=O)(=O)O)[C@@H]1OS(=O)(=O)O [Compound 4l] ?
Data returned: 48

----------
- assay_target: IL-8 (Homo sapiens, UniProt P10145)
- Sequence (P10145 21-99): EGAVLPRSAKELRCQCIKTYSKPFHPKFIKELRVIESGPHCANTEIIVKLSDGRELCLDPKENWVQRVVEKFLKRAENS
- test_method_notes: Biacore biosensor: inhibition of IL-8 binding to immobilised heparin and heparan sulfate
- particulars: immobilised heparan sulfate; inhibitor 1.0 μM, IL-8 0.068 μM; read-out: Inhibition of binding of IL-8 (HS)
- Experimental: Assays were performed using a Biacore™ 2000 optical biosensor obtained from Biacore AB, Uppsala, Sweden. The biosensor was operated in accordance with the manufacturer's instructions. […] Binding of growth factor or effector compound to the heparin or heparan sulfate was then monitored for approximately 5 minutes with the biosensor.
inhibition at 1 µM by entry:
Response body: numeric value in %, unit text excluded.

Guide cases for inhibition at 1 µM, answers given:
- molecular_string: "O=S(=O)(O)O[C@H]1[C@H](OS(=O)(=O)O)[C@@H](N(CCCCN([C@H]2C=C[C@@H](OS(=O)(=O)O)[C@@H](OS(=O)(=O)O)[C@@H]2OS(=O)(=O)O)[C@H]2C=C[C@@H](OS(=O)(=O)O)[C@@H](OS(=O)(=O)O)[C@@H]2OS(=O)(=O)O)[C@H]2C=C[C@@H](OS(=O)(=O)O)[C@@H](OS(=O)(=O)O)[C@@H]2OS(=O)(=O)O)C=C[C@H]1OS(=O)(=O)O"
  inhibition at 1 µM, %: 42
- molecular_string: "O=S(=O)(O)O[C@H]1[C@H](OS(=O)(=O)O)[C@@H](N(CCCCCCCCCN([C@H]2C=C[C@@H](OS(=O)(=O)O)[C@@H](OS(=O)(=O)O)[C@@H]2OS(=O)(=O)O)[C@H]2C=C[C@@H](OS(=O)(=O)O)[C@@H](OS(=O)(=O)O)[C@@H]2OS(=O)(=O)O)[C@H]2C=C[C@@H](OS(=O)(=O)O)[C@@H](OS(=O)(=O)O)[C@@H]2OS(=O)(=O)O)C=C[C@H]1OS(=O)(=O)O"
  inhibition at 1 µM, %: 65
- molecular_string: "O=S(=O)(O)O[C@H]1[C@H](OS(=O)(=O)O)[C@@H](N(CCCCCCCCN([C@H]2C=C[C@@H](OS(=O)(=O)O)[C@@H](OS(=O)(=O)O)[C@@H]2OS(=O)(=O)O)[C@H]2C=C[C@@H](OS(=O)(=O)O)[C@@H](OS(=O)(=O)O)[C@@H]2OS(=O)(=O)O)[C@H]2C=C[C@@H](OS(=O)(=O)O)[C@@H](OS(=O)(=O)O)[C@@H]2OS(=O)(=O)O)C=C[C@H]1OS(=O)(=O)O"
  inhibition at 1 µM, %: 89
- molecular_string: "O=S(=O)(O)O[C@H]1[C@H](OS(=O)(=O)O)[C@@H](N(CCCCCN([C@H]2C=C[C@@H](OS(=O)(=O)O)[C@@H](OS(=O)(=O)O)[C@@H]2OS(=O)(=O)O)[C@H]2C=C[C@@H](OS(=O)(=O)O)[C@@H](OS(=O)(=O)O)[C@@H]2OS(=O)(=O)O)[C@H]2C=C[C@@H](OS(=O)(=O)O)[C@@H](OS(=O)(=O)O)[C@@H]2OS(=O)(=O)O)C=C[C@H]1OS(=O)(=O)O"
  inhibition at 1 µM, %: 54

Data request: What does the record list as inhibition at 1 µM for `O=S(=O)(O)O[C@H]1[C@H](OS(=O)(=O)O)[C@@H](N(CCCN([C@H]2C=C[C@@H](OS(=O)(=O)O)[C@@H](OS(=O)(=O)O)[C@@H]2OS(=O)(=O)O)[C@H]2C=C[C@@H](OS(=O)(=O)O)[C@@H](OS(=O)(=O)O)[C@@H]2OS(=O)(=O)O)[C@H]2C=C[C@@H](OS(=O)(=O)O)[C@@H](OS(=O)(=O)O)[C@@H]2OS(=O)(=O)O)C=C[C@H]1OS(=O)(=O)O` ?
Data returned: 38

----------
pIC50 by entry:
- assay_target: UniProt P09038
- Sequence (P09038 134-288 limits assumed, species assumed): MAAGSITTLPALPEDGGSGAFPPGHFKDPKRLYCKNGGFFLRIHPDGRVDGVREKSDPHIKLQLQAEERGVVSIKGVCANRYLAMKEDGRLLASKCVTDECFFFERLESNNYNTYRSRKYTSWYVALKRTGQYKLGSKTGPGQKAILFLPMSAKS
- test_method_notes: Biacore biosensor: inhibition of bFGF binding to immobilised heparin and heparan sulfate
- particulars: immobilised heparin; read-out: IC50, inhibition of bFGF binding (Hep)
pIC50: −log10 of the molar value.

- compound: "O=S(=O)(O)OC1C(OS(=O)(=O)O)C(OS(=O)(=O)O)C(N(CCCCCCN(C2C(OS(=O)(=O)O)C(OS(=O)(=O)O)C(OS(=O)(=O)O)C(OS(=O)(=O)O)C2OS(=O)(=O)O)C2C(OS(=O)(=O)O)C(OS(=O)(=O)O)C(OS(=O)(=O)O)C(OS(=O)(=O)O)C2OS(=O)(=O)O)C2C(OS(=O)(=O)O)C(OS(=O)(=O)O)C(OS(=O)(=O)O)C(OS(=O)(=O)O)C2OS(=O)(=O)O)C(OS(=O)(=O)O)C1OS(=O)(=O)O (stereo not drawn)"
  assay_target: "UniProt P09038"
  pIC50: "< 6.60"

Data request: What does the record list as pIC50 for O=S(=O)(O)OC[C@H]1O[C@@](COS(=O)(=O)O)(O[C@H]2O[C@H](COS(=O)(=O)O)[C@@H](OS(=O)(=O)O)[C@H](OS(=O)(=O)O)[C@H]2OS(=O)(=O)O)[C@@H](OS(=O)(=O)O)[C@@H]1OS(=O)(=O)O [Sucrose octasulfate, reference compound] ?
Data returned: < 6.00

Data request: What does the record list as pIC50 for O=S(=O)(O)OC1C=CC(N(Cc2cccc(CN(C3C=CC(OS(=O)(=O)O)C(OS(=O)(=O)O)C3OS(=O)(=O)O)C3C=CC(OS(=O)(=O)O)C(OS(=O)(=O)O)C3OS(=O)(=O)O)c2)C2C=CC(OS(=O)(=O)O)C(OS(=O)(=O)O)C2OS(=O)(=O)O)C(OS(=O)(=O)O)C1OS(=O)(=O)O (stereo not drawn) ?
Data returned: 7.49

----------
inhibition at 0.034 µM by entry:
- assay_target: aFGF (Homo sapiens, UniProt P05230)
- Sequence (P05230 whole entry, species assumed): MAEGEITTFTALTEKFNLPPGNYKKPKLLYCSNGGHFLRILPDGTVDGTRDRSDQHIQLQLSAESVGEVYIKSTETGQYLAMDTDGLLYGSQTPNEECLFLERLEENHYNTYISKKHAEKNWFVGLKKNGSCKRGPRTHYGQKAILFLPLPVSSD
- test_method_notes: Biacore biosensor: inhibition of aFGF binding to immobilised heparin and heparan sulfate
- particulars: immobilised heparin; inhibitor 0.034 μM, aFGF 0.025 μM; read-out: Inhibition of binding of aFGF (Hep)
- Experimental: Assays were performed using a Biacore™ 2000 optical biosensor obtained from Biacore AB, Uppsala, Sweden. The biosensor was operated in accordance with the manufacturer's instructions. […] Binding of growth factor or effector compound to the heparin or heparan sulfate was then monitored for approximately 5 minutes with the biosensor. […]
Response body: numeric value in %, unit text excluded.

- compound: "O=S(=O)(O)O[C@H]1[C@H](OS(=O)(=O)O)[C@@H](N(CCN([C@H]2C=C[C@@H](OS(=O)(=O)O)[C@@H](OS(=O)(=O)O)[C@@H]2OS(=O)(=O)O)[C@H]2C=C[C@@H](OS(=O)(=O)O)[C@@H](OS(=O)(=O)O)[C@@H]2OS(=O)(=O)O)[C@H]2C=C[C@@H](OS(=O)(=O)O)[C@@H](OS(=O)(=O)O)[C@@H]2OS(=O)(=O)O)C=C[C@H]1OS(=O)(=O)O [Compound 4f]"
  unit_symbol: "%"
  inhibition at 0.034 µM: 65
- compound: "O=S(=O)(O)O[C@H]1[C@H](OS(=O)(=O)O)[C@@H](N(CCCCCN([C@H]2C=C[C@@H](OS(=O)(=O)O)[C@@H](OS(=O)(=O)O)[C@@H]2OS(=O)(=O)O)[C@H]2C=C[C@@H](OS(=O)(=O)O)[C@@H](OS(=O)(=O)O)[C@@H]2OS(=O)(=O)O)[C@H]2C=C[C@@H](OS(=O)(=O)O)[C@@H](OS(=O)(=O)O)[C@@H]2OS(=O)(=O)O)C=C[C@H]1OS(=O)(=O)O [Compound 4k]"
  unit_symbol: "%"
  inhibition at 0.034 µM: 43
- compound: "O=S(=O)(O)O[C@H]1[C@H](OS(=O)(=O)O)[C@@H](N(CCCCCCCCN([C@H]2C=C[C@@H](OS(=O)(=O)O)[C@@H](OS(=O)(=O)O)[C@@H]2OS(=O)(=O)O)[C@H]2C=C[C@@H](OS(=O)(=O)O)[C@@H](OS(=O)(=O)O)[C@@H]2OS(=O)(=O)O)[C@H]2C=C[C@@H](OS(=O)(=O)O)[C@@H](OS(=O)(=O)O)[C@@H]2OS(=O)(=O)O)C=C[C@H]1OS(=O)(=O)O [Compound 4i]"
  unit_symbol: "%"
  inhibition at 0.034 µM: 30

Data request: Look up inhibition at 0.034 µM with aFGF (Homo sapiens, UniProt P05230) for this compound: O=S(=O)(O)OC(CN([C@H]1C=C[C@@H](OS(=O)(=O)O)[C@@H](OS(=O)(=O)O)[C@@H]1OS(=O)(=O)O)[C@H]1C=C[C@@H](OS(=O)(=O)O)[C@@H](OS(=O)(=O)O)[C@@H]1OS(=O)(=O)O)CN([C@H]1C=C[C@@H](OS(=O)(=O)O)[C@@H](OS(=O)(=O)O)[C@@H]1OS(=O)(=O)O)[C@H]1C=C[C@@H](OS(=O)(=O)O)[C@@H](OS(=O)(=O)O)[C@@H]1OS(=O)(=O)O [Compound 4l]
Data returned: 54

Data request: Look up inhibition at 0.034 µM with aFGF (Homo sapiens, UniProt P05230) for this compound: O=S(=O)(O)O[C@H]1[C@H](OS(=O)(=O)O)[C@@H](N(CCCN([C@H]2C=C[C@@H](OS(=O)(=O)O)[C@@H](OS(=O)(=O)O)[C@@H]2OS(=O)(=O)O)[C@H]2C=C[C@@H](OS(=O)(=O)O)[C@@H](OS(=O)(=O)O)[C@@H]2OS(=O)(=O)O)[C@H]2C=C[C@@H](OS(=O)(=O)O)[C@@H](OS(=O)(=O)O)[C@@H]2OS(=O)(=O)O)C=C[C@H]1OS(=O)(=O)O [Compound 4a]
Data returned: 74
